# testTarget: T1, RXFP1 receptor (UniProt Q9HBX9 1-757, limits assumed)
# T1 sequence (looked up): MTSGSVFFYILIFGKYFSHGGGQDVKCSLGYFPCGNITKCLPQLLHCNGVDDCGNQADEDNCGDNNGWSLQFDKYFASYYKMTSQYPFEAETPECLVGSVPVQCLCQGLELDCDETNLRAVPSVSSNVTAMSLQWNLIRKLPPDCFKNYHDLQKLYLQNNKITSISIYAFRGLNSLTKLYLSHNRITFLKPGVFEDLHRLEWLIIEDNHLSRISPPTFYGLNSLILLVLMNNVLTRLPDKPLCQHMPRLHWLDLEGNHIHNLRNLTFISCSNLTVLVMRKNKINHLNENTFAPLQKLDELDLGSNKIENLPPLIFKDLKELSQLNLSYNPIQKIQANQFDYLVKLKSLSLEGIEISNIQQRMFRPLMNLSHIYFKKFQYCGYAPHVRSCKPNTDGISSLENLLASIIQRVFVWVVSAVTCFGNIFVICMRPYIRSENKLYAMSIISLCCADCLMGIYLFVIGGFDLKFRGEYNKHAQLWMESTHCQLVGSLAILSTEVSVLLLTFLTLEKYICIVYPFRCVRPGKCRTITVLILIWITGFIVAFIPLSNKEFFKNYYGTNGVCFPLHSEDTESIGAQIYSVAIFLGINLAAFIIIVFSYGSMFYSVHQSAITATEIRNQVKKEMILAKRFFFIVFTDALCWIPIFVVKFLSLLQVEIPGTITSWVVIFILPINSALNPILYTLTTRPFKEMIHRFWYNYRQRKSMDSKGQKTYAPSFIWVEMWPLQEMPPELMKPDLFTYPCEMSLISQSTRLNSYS
# methodDescription: cell-based or functional assay
*1 amine or outer side, *2 acyl side, *3 side chain or, on linkers, in order; H or OH if unused. Primed or numbered codes have the meaning given here. Side-chain parts run from the residue outwards. [ ]: non-standard residue; d: D form. The star is where a group is joined. PEG12 = NCCOCCOCCOCCOCCOCCOCCOCCOCCOCCOCCOCCOCCC(=O)O; γGlu = O=C(O)[C@H](CCC(=O)[*:2])N[*:1]; 1Nal = N[C@@H](Cc1cccc2ccccc12)C(=O)O; Pentadecanoyl = CCCCCCCCCCCCCCC(=O)*; Stearoyl = CCCCCCCCCCCCCCCCCC(=O)*; Palmitoyl = CCCCCCCCCCCCCCCC(=O)*; αMeK = C[C@](N)(CCCCN)C(=O)O; Nle = CCCC[C@H](N)C(=O)O; PEG2′ = PEG2 spacer unit; PEG2″ = not defined here; Aib = CC(C)(N)C(=O)O
measuredProperty: EC50 (nM), OVCAR 5 cells (cAMP)
Expressed in nM, but write only the number.

Worked cases, EC50 (nM), OVCAR 5 cells (cAMP) given:
Ac-LEGREKVRAQI[Aib][Aib]EG[Nle]STWS[Aib]RK[PEG2′]K([PEG2′-γGlu-γGlu-γGlu-Palmitoyl])-NH2 [peptide of SEQ ID NO: 12]
26.7
Ac-ELEGREKVRAAI[Aib][Aib]EG[Nle]STWS[Aib]RKK([PEG2′-γGlu-γGlu-Palmitoyl])-NH2 [peptide of SEQ ID NO: 54]
18.6
Ac-LEGREKVRAK(Ac)I[Aib][Aib]EGQSTWS[Aib]RKK(Ac)K([PEG2″-PEG2″-PEG2″-γGlu-γGlu-γGlu-Stearoyl])-NH2 [peptide of SEQ ID NO: 113]
0.53
Ac-LEGREKVRAK(Ac)I[Aib][Aib]EG[Nle]ST[1Nal]S[Aib]RKKK([PEG2″-PEG2″-γGlu-γGlu-γGlu-PEG2″-γGlu-Stearoyl])-NH2 [peptide of SEQ ID NO: 103]
0.09
Ac-LEGREKVRAK(Ac)I[Aib][Aib]EG[Nle]STWXXRKK(Ac)[PEG12]K([γGlu-γGlu-γGlu-γGlu-Stearoyl])-NH2 (not fully specified (some residues); printed as Ac-L-E-G-R-E-K-V-R-A-K(Ac)-I-Aib-Aib-E-G-Nle-S-T-W-Mse-Mly-R-K-K(Ac)-PEG12-K(gE-gE-gE-gE-Stea)-NH2) [peptide of SEQ ID NO: 40]
0.02
Ac-LEGREKVRAK(Ac)I[Aib][Aib]EG[Nle]STWS[Aib]RKK(Ac)K([PEG2′-PEG2′-PEG2′-PEG2′-γGlu-γGlu-γGlu-Stearoyl])-NH2 [peptide of SEQ ID NO: 90]
0.07

Consider the binder shown here: Ac-LEGREKVRAK(Ac)I[Aib][Aib]EG[Nle]STWS[Aib]RK(Ac)KK([PEG2″-PEG2″-γGlu-γGlu-γGlu-Stearoyl])-NH2 [peptide of SEQ ID NO: 72] What is its recorded EC50 (nM), OVCAR 5 cells (cAMP)? 0.17

Consider the binder shown here: Ac-LEGREKVRAK(Ac)I[Aib][Aib]EGQSTFS[αMeK]RAK(Ac)[PEG2′][PEG2′][PEG2′][PEG2′][γGlu][γGlu]K([γGlu-γGlu-Pentadecanoyl])-NH2 [peptide of SEQ ID NO: 186] What is its recorded EC50 (nM), OVCAR 5 cells (cAMP)? 0.18

Entry source: patent US20190233493A1
